Cited source: paper PMC2796168

target-under-test: Evasin-1 F14A W89A (Rhipicephalus sanguineus, UniProt P0C8E7 21-114, F14A | W89A)
experiment-summary: SPR; immobilized CCL3
pKd: −log10 of the molar value.

{"binder": "CCL3 (ligand) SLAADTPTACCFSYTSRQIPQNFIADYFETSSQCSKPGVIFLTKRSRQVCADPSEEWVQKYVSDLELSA", "pKd": 7.49}
